# assayed_system: Fuc(a1-2)[GalNAc(a1-3)]Gal(b1-4)[Fuc(a1-3)]GlcNAc
# protocol: glycan array binding signal (z-score within array); higher = stronger binding
# experimental_conditions: glycan notation: IUPAC condensed, linker removed
The entries come from a sample that favours the strongest signals as a whole.
The binders listed here are annotated with their glycan array binding signal (z-score).
test_readout: glycan array binding signal (z-score)

{"binder": "LgFlo1 (Saccharomyces pastorianus), B3IUA8 (protein) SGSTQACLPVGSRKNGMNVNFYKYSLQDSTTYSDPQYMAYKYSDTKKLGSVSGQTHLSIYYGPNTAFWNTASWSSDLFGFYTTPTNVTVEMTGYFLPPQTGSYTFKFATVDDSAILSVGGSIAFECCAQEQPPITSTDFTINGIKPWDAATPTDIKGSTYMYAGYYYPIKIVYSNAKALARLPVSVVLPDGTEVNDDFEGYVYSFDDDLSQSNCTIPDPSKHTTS", "quantitative_readout": 0.711}
{"binder": "CTLY 1 (Homo sapiens), Q6ZS10 (protein) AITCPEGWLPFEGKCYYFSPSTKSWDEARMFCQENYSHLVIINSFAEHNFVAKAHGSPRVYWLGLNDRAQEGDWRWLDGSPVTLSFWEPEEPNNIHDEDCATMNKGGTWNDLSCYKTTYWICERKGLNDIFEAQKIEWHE", "quantitative_readout": 5.5}
{"binder": "CD23 (Homo sapiens) (protein) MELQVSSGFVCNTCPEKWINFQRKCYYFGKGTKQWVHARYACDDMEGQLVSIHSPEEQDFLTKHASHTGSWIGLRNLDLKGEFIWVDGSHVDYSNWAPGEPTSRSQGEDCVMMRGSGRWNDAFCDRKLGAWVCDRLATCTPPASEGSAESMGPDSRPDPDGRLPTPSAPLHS", "quantitative_readout": 0.752}
